// reported activity coefficient per item
Assay: activity coefficient (dimensionless); of the first substance listed, at infinite dilution; xn = mol fraction of the nth substance listed
Details: 333.15 K; Liquid; Chromatography; x1 = 0

{"columns": ["MOLECULE", "activity coefficient"],
 "data": [
  ["CCN(CC)CC [triethylamine] + Cn1cc[n+](COCCCOC[n+]2ccn(C)c2)c1.N#C[N-]C#N.N#C[N-]C#N", 52.5],
  ["CCc1ccccc1 [ethylbenzene] + CN(C)c1cc[n+](COCCCOC[n+]2ccc(N(C)C)cc2)cc1.O=S(=O)([N-]S(=O)(=O)C(F)(F)F)C(F)(F)F.O=S(=O)([N-]S(=O)(=O)C(F)(F)F)C(F)(F)F", 1.49],
  ["Cc1ccc(C)cc1 [1,4-dimethylbenzene] + CCCOC[n+]1ccn(C)c1.F[B-](F)(F)F", 10.3],
  ["CCCCO [butan-1-ol] + CCCOC[n+]1ccn(Cc2ccccc2)c1.F[B-](F)(F)F", 2.59],
  ["CCC(C)=O [butanone] + CN(C)c1cc[n+](COCCCOC[n+]2ccc(N(C)C)cc2)cc1.O=S(=O)([N-]S(=O)(=O)C(F)(F)F)C(F)(F)F.O=S(=O)([N-]S(=O)(=O)C(F)(F)F)C(F)(F)F", 0.41],
  ["CC(C)OC(C)C [diisopropyl ether] + CCCCCCCCn1cc[n+](COCCCOC[n+]2ccn(CCCCCCCC)c2C)c1C.N#C[N-]C#N.N#C[N-]C#N", 4.07]
]}
